test system: MS2 coat protein; assay: apparent KD of MS2 coat protein; designed switch direction (-1 OFF switch, 1 ON switch): 1; higher = weaker reporter binding; details: input ligand: none
observed property: apparent KD of MS2 coat protein (nM)
Your answer is read as nM, so omit the unit and give the number.

Enquiry: Specify reported apparent KD of MS2 coat protein for the sequence shown: GGAUGACGGACAGGAUAUUGAUUCUAAUGGUUUCAAGAAGGGUCUUCGAUAUAAACGACCAGUUACAUGAGGAUCACCCAUGUU [JR_SSNG1_Sub033] (Eterna round: R96, puzzle: Same State NG 1)
Return: 45

Enquiry: Determine from records and report apparent KD of MS2 coat protein for GGUCGGACUCACAUGAGGAUCACCCAUGUUGCGGAAACGCGACAGGAUAUCUGUCCGAAAAGGUCAGAGAAGGGUCAACCGACC [Fiskers NG3ss - 58] (Eterna round: R96, puzzle: Same State NG 3)
Return: 504

Enquiry: Fill in reported apparent KD of MS2 coat protein for this entry: GUGGUCAGACAUGAGGAUCACCCAUGUGGAAUAAAUAAGGGUUAGGAUAUCGAAUAUAGGAUAUACGAGAAGGGAUGGUUGGUG (Eterna round: R96, puzzle: Same State NG 3)
Return: 109

Enquiry: For the sequence AGCCGAGACUGAGGAUAUUUUAAUCUACAUGAGGAUCACCCAUGUAACAACACGUGGUAGUGAUAGAAGAAGGCGGCUCGGCGC [Omei SS(NG)2 Cv1] (Eterna round: R96, puzzle: Same State NG 2) , give its measured apparent KD of MS2 coat protein value.
Return: 386

Enquiry: Return apparent KD of MS2 coat protein (reported value) for this sequence: UAUGAAUUGCAAGGAUAUUGAUAACAUGAGGAUCACCCAUGUAAUUGAUCGAGUUAGAUCAGUUACAAGAAGGUGCUAUUGAUU [JR_SSNG2_Sub036] (Eterna round: R96, puzzle: Same State NG 2)
Return: 90.7

Enquiry: Supply measured apparent KD of MS2 coat protein of CGCGGCAAGGAAGGAUAUGGGACGAAAACGUACCUAGAAGGUCCACAUGAGGAUCACCCAUGUACCAAGAAAACCGCUAAAUUA [Atceorer] (Eterna round: R96, puzzle: Same State NG 1) in your reply.
Return: 207

Enquiry: Complete the entry with apparent KD of MS2 coat protein for GCCGCGUUUCGCGCCUACAUGAGGAUCACCCAUGUAUGUGGGCAGGAUAUCGUUUGCUUUGCAAACGAGAAGGGCUGUUGUGGC [salish99_SSNG3_R04_010] (Eterna round: R96, puzzle: Same State NG 3)
Return: 30

Enquiry: Entry CAAUAAUGUGGAGGAUAUGGGAGGUCAACACAUGAGGAUCACCCAUGUAGAUAGUGAGGCCAAGCCUAGAAGGCCACAAUCAGC [Eternabot solution 20] (Eterna round: R96, puzzle: Same State NG 2) needs its apparent KD of MS2 coat protein filled in; supply it.
Return: 95.9

Enquiry: Please list apparent KD of MS2 coat protein recorded for the sequence AGUCCAGCCUGAGCUGGACAAAUGCUUGUACAUGAGGAUCACCCAUGUAUGUACAAGCUUUUUGCUCGUCUUAAUAA [JL zipper 68] (Eterna round: R96, puzzle: Sensor for hsa-mir-208a)
Return: 223

Enquiry: Complete the entry with apparent KD of MS2 coat protein for AUUAUUAAUGCAGGAUAUGAUUAACAUGAGGAUCACCCAUGUGGUGUUGUGAGUAAGGAGAGUGAUCAGAAGGGCAUCUUUUUU [JMF's solution 10] (Eterna round: R96, puzzle: Same State NG 2)
Return: 359

Enquiry: Supply apparent KD of MS2 coat protein value. Item: GUUAGGAAUCUAGCAAACAUGAGGAUCACCCAUGUUAGUGGGAAGGAUAUGGUACAGAAACUGUACCAGAAGGUCUUAUUGUUU [Omei SS(NG) 3 AV9] (Eterna round: R96, puzzle: Same State NG 3)
Return: 439

Enquiry: Answer with reported apparent KD of MS2 coat protein of GCGGAACGGGCCGACAUGAGGAUCACCCAUGUGGCCUCAUGUCAGGAUAUCGGGAAGAAGAAAACCGAGAAGGGACGGUGACGC [AK SSNG3-V2-32] (Eterna round: R96, puzzle: Same State NG 3)
Return: 22.2

Enquiry: Input UGGAUGGUGAUAGGAUAUACAUGAGGAAUCCUCGUAGAAGGAUCACGACAUGAGGAUCACCCAUGUAGCCGUCCGUAGACGGCU [salish99_SSNG1_r04_004] (Eterna round: R96, puzzle: Same State NG 1) , output reported apparent KD of MS2 coat protein.
Return: 711

Enquiry: # return recorded apparent KD of MS2 coat protein for input ACUUAGUACAAUUUAGAUCUACAUGAGGAUCACCCAUGUACUGAGGAUAUCAGCUCGUUUAGAGCUGAGAAGGCAGUAGUACUA [SSNG3/9-A3] (Eterna round: R96, puzzle: Same State NG 3)
Return: 61.9

Enquiry: Specify measured apparent KD of MS2 coat protein for AAAUAAAACACAGGAUAUGCAGUCAAAACGACGGCAGAAGGGUGAGACAUGAGGAUCACCCAUGUACACAUCCCACGGAUGUGC [Anonised] (Eterna round: R96, puzzle: Same State NG 1) .
Return: 1060

Enquiry: Please list apparent KD of MS2 coat protein recorded for the sequence GCUAGAAUUAAAGCCAACAUGAGGAUCACCCAUGUAUGUUGGUAGGAUAUCGUUUGCUUUGCAAACGAGAAGGGCCAAACUAGC [JL SSNG3 1.07] (Eterna round: R96, puzzle: Same State NG 3)
Return: 111

Enquiry: Name the recorded apparent KD of MS2 coat protein of the sequence listed here: UAAAUGAAGUAAGGAUAUACAUGAGGAUCACUCGUAGAAGGUACUAUACAUGAGGAUCACCCAUGUGCCGGUCAGAAGACUGGA [Mat - Same State NG 1 - JL mod - D6] (Eterna round: R96, puzzle: Same State NG 1)
Return: 943

Enquiry: Supply apparent KD of MS2 coat protein value. Item: AGUAGUGUAACAUGAGGAUCACCCAUGUAAGUAGAUGUAACCUAGGAUAUGGAUGAUAUGUUAGUCCAGAAGGAGGAUUGAAUA [JR_SSNG3_Sub037] (Eterna round: R96, puzzle: Same State NG 3)
Return: 44.4

###

test system: MS2 coat protein; experiment: apparent KD of MS2 coat protein, switch OFF state (with FMN for OFF switches, without FMN for ON switches); designed switch direction (-1 OFF switch, 1 ON switch): -1; higher = weaker reporter binding; details: FMN input: 0 or 200 uM; Eterna round: R93 (includes R88 designs)
observed property: apparent KD of MS2 coat protein (nM)
Supply the numeric figure in nM, leaving out any unit text.

Enquiry: Indicate its recorded apparent KD of MS2 coat protein; the sequence in question is AACAAGGCAGGAUAUACAUGAGGAUCACCCAUGUGAGAAUUAAGUGGCGUAACACAAAGUAGAAGGGCCAUGGA [Ruby 5]
Return: 49.9

Enquiry: State its apparent KD of MS2 coat protein: AAAAAGGGAGGAUAUGCAAAAAAAAAAAAAAAAAAAAAAAAACAUGAGGAUCACCCAUGUAGAAGGCCCAAAAA [Dora Baggins - Jieux - Exclusion 2]
Return: 34.4

Enquiry: Indicate the recorded apparent KD of MS2 coat protein value for this sequence: AAAGGACGAGGAUAUACAUGAGGAUCACCCAUGUAAAAAACAUAGUAAAAGGGCUUGUGUAGAAGGCGUCCAAA [Meechl Ex3 2 R2 v10]
Return: 35.6

###

system: MS2 coat protein; assay: apparent KD of MS2 coat protein; higher = weaker reporter binding; details: Eterna round: R107; input ligand: none
Give apparent KD of MS2 coat protein for every item shown.
Answer in nM, number only, no unit symbol.

Enquiry: Assign apparent KD of MS2 coat protein to the following record: AUUAAGGAUAUGUAGAAGGCGGAGAAGAGACGAGGACCGGUACGGCCGCCACUCGUGUUAGUUAACAUGAGGAUCACCCAUGUAA [#06 Tryptophan A Same State]
Return: 60.7

Enquiry: Read the entry GUAGCGACGACGGCCGCCACUCACAGGUGAGGGUAGACCAACCUUCACAUGAGGAUCACCCAUGUGAGGACCGGGUUGUCGCUAC [#12 Exclusion Tryptophan B] and write its reported apparent KD of MS2 coat protein.
Return: 79

Enquiry: Quickly give me recorded apparent KD of MS2 coat protein for UUGUUGUUUGGAAGGAGCGUGUAUGAGUUAGAACAUGAGGAUCACCCAUGUUGGAUGAUAGCACAGGUAGGUCGCCGGGUGGUGG [11.Y]
Return: 24.1

Enquiry: Report apparent KD of MS2 coat protein for GUAGGUCACCUCAUGAGACCUACCCUGGAAGGAGCGAGCGAAAGCUCAGGUAGGUCGCCAGAAACAUGAGGAUCACCCAUGUAAU [(A)''-(M)'-(A)'-(Arg1)-(Arg2)-(M1)-(M2)_Design3]
Return: 51.1

Enquiry: Please list apparent KD of MS2 coat protein recorded for the sequence UCACAUGAGGAUCACCCAUGUCCAGGUGAAGGAGCGAUUAGGGAGUCAGGUAGGUCGCACCACAUGAGGAUCACCCAUGUGCCUG [EAA NP+V+V2 #8 DOUBLE]
Return: 22.8

Enquiry: Give the value of apparent KD of MS2 coat protein reported for the following: GUUUAGAGCUCGGCCGCCACUCAAACAUGAGGAUCACCCAUGUAAAACAUGAGGAUCACCCAUGUGAGGACCGGGAGAAAUAAGA [Exclusion Tryptophan B GF7]
Return: 337

Enquiry: Specify apparent KD of MS2 coat protein for GUCGCUGAGGGAAGGAGCGUGAAGACAUGAGGAUCACCCAUGUAGAGGCGCCGAAGGCGUUCGCAGGUAGGUCGCCCUCAGUGAC [#1 Same State - Arginine B Attempt #22 (HarryS)] and stop.
Return: 19.3

Enquiry: Note down apparent KD of MS2 coat protein recorded for UUCAAAGGGAACGGUGCUGGUAGCAGAGAUACCAGAGUAAUGAUACUCCCUUGGCAGCUCAGUACAUGAGGAUCACCCAUGUAAU [Exclusion Theophylline A GF24]
Return: 13.5

Enquiry: Please give the documented apparent KD of MS2 coat protein of CGAUAGAUACGAAGGAGCGACAUGAGGAUCACCCAUGUCUACCACGUCGAAAGACGCUCAUGUCAGGUAGGUCGCGUAUUUAUCG [Astros-Eli-mod8]
Return: 122

Enquiry: State its apparent KD of MS2 coat protein: CACGGAUGAGUGGAUCACCCUCAUAAUAACCGAGGACCGGUACGGCCGCCACUCGAAAACCGUGACCUGUACGAAAAGUGCAGGA
Return: 33.5

Enquiry: Supply reported apparent KD of MS2 coat protein belonging to this sequence: GCUAGUGGCAGAAGGAGCGACAUUUAUAGUGGUCGAUACAUGAGGAUCACCCAUGUACUAUGUCAGGUAGGUCGCUGCCACUAGC [EAB NP+V+V2 #5]
Return: 35.1

Enquiry: Supply measured apparent KD of MS2 coat protein of ACGGGCAUGGCGGCCGCCACUGGUUGGCGUGCGGAUGAGGGAACAUGAGGAUCACCCAUGUUGGUUAGGACCGGGCUGGCGUCGA [kkymullin] in your reply.
Return: 15.4
